- tgt: Progesterone receptor (Homo sapiens, UniProt P06401)
- Sequence (P06401 whole entry): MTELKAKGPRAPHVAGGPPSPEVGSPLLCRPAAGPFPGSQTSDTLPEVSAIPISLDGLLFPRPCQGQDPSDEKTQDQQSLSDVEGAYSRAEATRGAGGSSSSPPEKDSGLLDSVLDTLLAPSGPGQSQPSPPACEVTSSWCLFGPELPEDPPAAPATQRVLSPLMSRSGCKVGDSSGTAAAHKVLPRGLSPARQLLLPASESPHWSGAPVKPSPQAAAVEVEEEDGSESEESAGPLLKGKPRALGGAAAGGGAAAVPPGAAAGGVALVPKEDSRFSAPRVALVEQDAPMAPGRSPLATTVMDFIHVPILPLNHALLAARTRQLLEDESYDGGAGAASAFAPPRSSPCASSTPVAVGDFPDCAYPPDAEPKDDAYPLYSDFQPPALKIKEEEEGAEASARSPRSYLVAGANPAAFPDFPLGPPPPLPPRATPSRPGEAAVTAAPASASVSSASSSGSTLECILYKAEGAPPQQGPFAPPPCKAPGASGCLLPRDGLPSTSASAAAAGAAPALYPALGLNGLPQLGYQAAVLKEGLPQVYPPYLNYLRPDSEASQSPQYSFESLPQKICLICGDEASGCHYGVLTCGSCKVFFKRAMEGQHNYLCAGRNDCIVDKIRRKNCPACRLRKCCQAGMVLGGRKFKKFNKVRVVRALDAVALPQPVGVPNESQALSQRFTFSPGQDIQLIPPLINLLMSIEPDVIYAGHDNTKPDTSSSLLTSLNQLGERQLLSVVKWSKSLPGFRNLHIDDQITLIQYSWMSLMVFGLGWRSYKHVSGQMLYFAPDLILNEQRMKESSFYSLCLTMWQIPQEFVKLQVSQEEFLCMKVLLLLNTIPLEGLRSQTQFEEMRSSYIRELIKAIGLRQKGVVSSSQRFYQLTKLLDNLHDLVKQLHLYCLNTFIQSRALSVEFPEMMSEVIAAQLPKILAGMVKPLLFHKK
// note: IC50 values for Progesterone receptor (Homo sapiens, UniProt P06401) were reported in different studies
Answer in nM, number only, no unit symbol.

// below: answered molecules
CC(C)C(O)(CC(C)(C)c1ccccc1)C(=O)Nc1ccc2c(c1)COC2=O (stereo not given) ... 210
C=CCSC(C)C1=CC(C)(C)Nc2ccc(-c3ccccc3OC)cc21 (stereo not given) ... 600
CCC(Cc1cc(F)cc(F)c1)NS(=O)(=O)c1c(C)cc(C)cc1C (stereo not given) ... 3400
COc1ccc(-c2ccccc2)cc1C(C)(C)CC(O)(Cc1cc2ccncc2[nH]1)C(F)(F)F (stereo not given) ... 1200

Could you tell me which IC50 is on file for CC/C=C/COC(C)C1=CC(C)(C)Nc2ccc(-c3ccccc3OC)cc21 (stereo not given) ?
1600

Could you tell me which IC50 is on file for CC(C)(CC(O)(Cc1cc(O)cc(O)c1)C(=O)Nc1ccc2c(c1)COC2=O)c1ccccc1 (stereo not given) ?
160

Could you tell me which IC50 is on file for Cc1ccc(F)cc1C(C)(C)C[C@@](O)(Cc1cc2cnccc2[nH]1)C(C)(C)C ?
290

Could you tell me which IC50 is on file for CCCNS(=O)(=O)c1ccc(-c2ccc3c(cnn3-c3ccc(F)cc3)c2)c(C(F)(F)F)c1 ?
794

Could you tell me which IC50 is on file for Cc1ccc(F)cc1C(C)(C)CC(O)(Cc1cc2cnccc2[nH]1)C(C)(C)C (racemic) ?
780

Could you tell me which IC50 is on file for O=C1COc2ccc(C3=Nn4cnnc4SC3)cc2N1 ?
1600

Could you tell me which IC50 is on file for CC1=C(C#N)[C@@H](c2ccc(F)cc2Cl)C(C(=O)OC(C)(C)C)=C(C)N1 ?
3520
